# Tested On: DNA primase (UniProt P0ABS7)
# Sequence (P0ABS7 whole entry): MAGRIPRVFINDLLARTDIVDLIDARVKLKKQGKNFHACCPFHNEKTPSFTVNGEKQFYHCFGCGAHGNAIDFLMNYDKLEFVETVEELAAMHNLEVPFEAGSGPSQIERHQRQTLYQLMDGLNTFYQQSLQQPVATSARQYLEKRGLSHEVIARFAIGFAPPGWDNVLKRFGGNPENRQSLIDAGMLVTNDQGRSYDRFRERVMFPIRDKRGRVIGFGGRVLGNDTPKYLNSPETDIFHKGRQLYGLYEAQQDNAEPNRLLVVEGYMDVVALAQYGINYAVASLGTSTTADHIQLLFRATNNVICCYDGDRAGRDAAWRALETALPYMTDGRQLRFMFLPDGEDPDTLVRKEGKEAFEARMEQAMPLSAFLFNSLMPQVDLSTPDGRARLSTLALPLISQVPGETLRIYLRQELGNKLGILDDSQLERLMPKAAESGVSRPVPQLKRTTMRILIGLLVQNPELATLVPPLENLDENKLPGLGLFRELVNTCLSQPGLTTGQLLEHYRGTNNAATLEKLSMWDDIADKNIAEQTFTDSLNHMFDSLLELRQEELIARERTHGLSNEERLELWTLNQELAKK
# Assay Explanation: relative enzymatic activity vs untreated control (fraction); higher = less inhibition
# Run Conditions: 100 µM; incubation time: 2 h at 37 C
Observation Type: relative enzymatic activity
One number for each entry.

For every item below, please supply its relative enzymatic activity.
1. Cn1nnnc1SCC1=C(C(=O)[O-])N2C(=O)C(NC(=O)C(O)c3ccccc3)C2SC1.[Na+] (stereo not drawn)
2. O=c1[nH]c(=O)n([C@@H]2C[C@@H](O)[C@@H](CO)O2)cc1F
3. CC(C)(ON=C(C(=O)NC1C(=O)N2C(C(=O)[O-])=C(C[n+]3ccccc3)CSC12)c1csc(N)n1)C(=O)O (stereo not drawn)
4. NC(=O)[C@@H]1C(=O)C[C@@H]2C[C@@H]3Cc4cccc(O)c4C(=O)[C@@H]3C(=O)[C@]2(O)C1=O

[0.689, 0.873, 0.593, 0.822]

List reported relative enzymatic activity for each of these compounds:
1. CCC=C(C(=O)NC1C(=O)N2C(C(=O)OCOC(=O)C(C)(C)C)=C(COC(N)=O)CSC12)c1csc(N)n1.Cl (stereo not drawn)
2. CN(C)CCC=C1c2ccccc2COc2ccc(CC(=O)O)cc21.Cl
3. CN(C)[C@@H]1C(=O)[C@@H](C(N)=O)C(=O)[C@@]2(O)C(=O)[C@H]3C(=O)c4c(O)ccc(Cl)c4[C@@H](O)[C@H]3C[C@@H]12
4. COC1=C(N)C(=O)c2nc(-c3nc(C(=O)O)c(C)c(-c4ccc(OC)c(OC)c4O)c3N)ccc2C1=O

1: 0.907; 2: 0.755; 3: 0.754; 4: 0.602

Recorded values, source the supplement of paper PMC9446081.
